# study.target: human NTCP (Homo sapiens)
# experiment.notes: Screening taurocholate uptake assay (96-well, [14C]taurocholate, 10 µM drug)
# assay.conditions: Prestwick library screen, 10 µM drug; B-score of taurocholate uptake
Structures can show the parent of a compound that is named as a salt.
measured.parameter: B-score functional assay
// return just the number, without any unit appended

# get_value(readout='B-score functional assay', item= CCOC(=O)[C@@](C)(N)Cc1ccc(O)c(O)c1 [Methyldopate hydrochloride] )
0.673

Now give it for C1N2CN3CN1CN(C2)C3 too.
1.472

Now give it for CN(C)CCOC1=Cc2ccccc2Sc2ccc(Cl)cc21 [Zotepine] too.
0.249

And what about the compound c1ccc([C@H]2CN3CCSC3=N2)cc1 [Levamisole hydrochloride] ?
0.335

And what about the compound CC(=O)O[C@]1(C(C)=O)CC[C@H]2[C@@H]3C=C(C)C4=CC(=O)CC[C@]4(C)[C@H]3CC[C@@]21C [Megestrol acetate] ?
0.476

* * *

# study.target: UniProt:Q14973
# experiment.notes: Screening taurocholate uptake assay (96-well, [14C]taurocholate, 10 µM drug)
# assay.conditions: screening taurocholate uptake, 10 µM drug
Counter-ions that a name gives are not always drawn.
measured.parameter: B-score functional assay

B-score functional assay for Clc1ccc(Nc2nnc(Cc3ccncc3)c3ccccc23)cc1 ?
-2.979

Same thing, different compound: CN(C)CCCC1(c2ccc(F)cc2)OCc2cc(C#N)ccc21 (stereo not shown) [Citalopram Hydrobromide]
-1.909

Cool, now Cc1cc(=O)n(-c2ccccc2)n1C [Antipyrine]
-1.958

Similarly, COc1cc(C(=O)OCCCN2CCCN(CCCOC(=O)c3cc(OC)c(OC)c(OC)c3)CC2)cc(OC)c1OC.Cl.Cl [Dilazep dihydrochloride] ?
-0.659

* * *

# study.target: human NTCP (Homo sapiens, UniProt Q14973)
# Sequence (Q14973 1-349): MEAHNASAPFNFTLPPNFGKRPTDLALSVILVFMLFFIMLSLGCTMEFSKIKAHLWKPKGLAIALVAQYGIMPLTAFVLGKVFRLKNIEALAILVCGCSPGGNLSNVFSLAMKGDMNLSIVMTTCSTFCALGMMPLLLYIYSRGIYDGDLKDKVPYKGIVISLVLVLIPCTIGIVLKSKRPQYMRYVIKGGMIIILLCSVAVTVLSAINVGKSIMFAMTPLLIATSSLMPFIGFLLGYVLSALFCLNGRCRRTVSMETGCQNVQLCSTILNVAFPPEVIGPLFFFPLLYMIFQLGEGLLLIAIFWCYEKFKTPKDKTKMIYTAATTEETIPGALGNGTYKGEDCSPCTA
# experiment.notes: Screening taurocholate uptake assay (96-well, [14C]taurocholate, 10 µM drug)
# assay.conditions: screening taurocholate uptake, 10 µM drug
Lab note: compare B-score functional assay against -0.9. Equal or greater, write t. Smaller, write f.

Would you say CN/C(=N/CCSCc1nc[nH]c1C)NC#N shows B-score functional assay at minimum -0.9?
t

Would you mind doing CC1(C)O[C@@H]2C[C@H]3[C@@H]4CCC5=CC(=O)CC[C@]5(C)[C@@]4(F)[C@@H](O)C[C@]3(C)[C@]2(C(=O)CCl)O1 [Halcinonide] as well?
t

Also need CC(=O)OCC(=O)[C@@]12OC3(CCCC3)O[C@@H]1C[C@H]1[C@@H]3CCC4=CC(=O)C=C[C@]4(C)[C@@]3(F)[C@@H](O)C[C@@]12C [Amcinonide] , thanks.
t

Try CNC[C@H](O)[C@@H](O)[C@H](O)[C@H](O)CO next.
f

Also need O=C(C1CCCCC1)N1CC(=O)N2CCc3ccccc3C2C1 (centres unmarked) , thanks.
t

Repeat for the following compound: CC(C)Oc1ccc2c(=O)c(-c3ccccc3)coc2c1
t

Lookup COc1cnc(NS(=O)(=O)c2ccc(N)cc2)nc1
f

For CCc1cccc(CC)c1NC(=O)CN(CC(=O)O)CC(=O)O then?
t

Try the compound O=c1[nH]c(=O)n(C2CCCO2)cc1F (centres unmarked)
f

Cool, now O=C(OCCOCCO)c1ccccc1Nc1cccc(C(F)(F)F)c1 [Etofenamate]
t

Next up: CO[C@H]1/C=C/O[C@@]2(C)Oc3c(C)c(O)c4c(O)c(c(/C=N/N5CCN(C6CCCC6)CC5)c(O)c4c3C2=O)NC(=O)/C(C)=C\C=C\[C@H](C)[C@H](O)[C@@H](C)[C@@H](O)[C@@H](C)[C@H](OC(C)=O)[C@@H]1C
t

Entry COC(=O)C1=C(C)NC(C)=C(C(=O)OCC(C)C)C1c1ccccc1[N+](=O)[O-] (centres unmarked) please
f

Try CC(=O)O[C@H]1C[C@H](O[C@H]2[C@@H](O)C[C@H](O[C@H]3[C@@H](O)C[C@H](O[C@H]4CC[C@@]5(C)[C@H](CC[C@@H]6[C@@H]5C[C@@H](O)[C@]5(C)[C@@H](C7=CC(=O)OC7)CC[C@]65O)C4)O[C@@H]3C)O[C@@H]2C)O[C@H](C)[C@H]1O[C@@H]1O[C@H](CO)[C@@H](O)[C@H](O)[C@H]1O [Lanatoside C] next.
t

* * *

I'd appreciate it if you could supply B-score binding assay values for the items below.
# study.target: human NTCP (Homo sapiens, UniProt Q14973)
# Sequence (Q14973 1-349): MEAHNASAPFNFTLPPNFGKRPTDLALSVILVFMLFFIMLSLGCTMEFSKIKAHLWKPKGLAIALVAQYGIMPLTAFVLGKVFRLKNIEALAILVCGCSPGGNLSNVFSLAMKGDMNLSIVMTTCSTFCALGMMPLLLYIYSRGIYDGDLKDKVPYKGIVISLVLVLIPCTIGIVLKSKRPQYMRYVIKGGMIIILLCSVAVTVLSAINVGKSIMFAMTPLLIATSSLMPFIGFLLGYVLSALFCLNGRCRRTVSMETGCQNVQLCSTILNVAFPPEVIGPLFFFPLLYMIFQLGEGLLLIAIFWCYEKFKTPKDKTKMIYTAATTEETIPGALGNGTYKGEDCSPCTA
# experiment.notes: Screening fluorescent competitive Myrcludex B-FITC binding assay (96-well, 10 µM drug)
# assay.conditions: screen, 10 µM drug, Myrcludex B-FITC binding
Where a name gives a salt, the structure may show the parent alone.
I'd appreciate a reply containing only the number, no unit.

I'm curious: which B-score binding assay was measured for S=c1[nH]cnc2nc[nH]c12 tested on human NTCP (Homo sapiens, UniProt Q14973)?
-0.534

Moving on to the next molecule: N=C(N)NC(=O)c1nc(Cl)c(N)nc1N [Amiloride hydrochloride dihydrate]
1.12

Entry Cc1ccc(-c2ncc(Cl)cc2-c2ccc(S(C)(=O)=O)cc2)cn1 please
-0.254

// query: C1CCC(C(CC2CCCCN2)C2CCCCC2)CC1 (stereo not drawn) [Perhexiline maleate]
-0.916

Param item: O=P(O)(O)C(O)(Cn1ccnc1)P(=O)(O)O [Zoledronic acid hydrate]
-0.262

Follow-up entry: CC[C@H]1OC(=O)[C@H](C)[C@@H](O[C@H]2C[C@@](C)(OC)[C@@H](O)[C@H](C)O2)[C@H](C)[C@@H](O[C@@H]2O[C@H](C)C[C@H](N(C)C)[C@H]2O)[C@](C)(OC)C[C@@H](C)C(=O)[C@H](C)[C@@H](O)[C@]1(C)O
0.501

COc1ccccc1N1CCN(CC(O)COc2cccc3ccccc23)CC1.Cl.Cl (stereo not drawn) [Naftopidil dihydrochloride] ?
1.879

Repeat with C[C@@H](c1ncncc1F)[C@](O)(Cn1cncn1)c1ccc(F)cc1F
-0.464

Please give the result for COc1cc(C)c(/C=C/C(C)=C/C=C/C(C)=C/C(=O)O)c(C)c1C too.
-1.766

* * *

# study.target: human NTCP (Homo sapiens, UniProt Q14973)
# Sequence (Q14973 1-349): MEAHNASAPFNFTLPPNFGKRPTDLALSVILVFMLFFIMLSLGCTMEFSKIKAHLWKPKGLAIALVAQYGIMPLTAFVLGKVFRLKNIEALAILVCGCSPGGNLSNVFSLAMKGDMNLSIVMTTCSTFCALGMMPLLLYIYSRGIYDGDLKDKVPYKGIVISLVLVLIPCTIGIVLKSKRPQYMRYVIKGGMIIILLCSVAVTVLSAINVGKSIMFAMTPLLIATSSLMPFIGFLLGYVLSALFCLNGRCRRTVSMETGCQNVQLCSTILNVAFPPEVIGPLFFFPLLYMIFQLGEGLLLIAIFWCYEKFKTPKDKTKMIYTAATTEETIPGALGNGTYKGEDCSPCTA
# experiment.notes: Screening fluorescent competitive Myrcludex B-FITC binding assay (96-well, 10 µM drug)
# assay.conditions: Prestwick library screen, 10 µM drug; B-score of Myrcludex B-FITC binding
Structures can show the parent of a compound that is named as a salt.
For each entry below, report its B-score binding assay value.
In your answer, state the number alone without any accompanying words.

Need B-score binding assay of CC(C)(C)NC[C@H](O)c1ccc(O)c(CO)c1 [Levalbuterol hydrochloride] , thanks.
1.242

Item: Cl.NCC(O)c1ccc(O)cc1 (racemic) [(+,-)-Octopamine hydrochloride]
0.069

Then this compound: CCCCNc1cc(C(=O)O)cc(S(N)(=O)=O)c1Oc1ccccc1 [Bumetanide]
1.043

# repeat for COc1ccc(NS(=O)(=O)c2ccc(N)cc2)nn1
1.584

What do we get for C=C(CC)C(=O)c1ccc(OCC(=O)O)c(Cl)c1Cl ?
0.672

Another: CCOC(=O)[C@H](CCc1ccccc1)N[C@@H](C)C(=O)N1Cc2ccccc2C[C@H]1C(=O)O [Quinapril HCl]
0.741

Field entry: Cl.c1cnc(N2CCN(Cc3ccc4c(c3)OCO4)CC2)nc1 [Piribedil hydrochloride]
0.754

Again, but for CC[N+]1(C)CCCC(OC(=O)C(O)(c2ccccc2)c2ccccc2)C1 (centres unmarked) [Pipenzolate bromide]
0.291

C[C@H]1[C@H](NC(=O)/C(=N\OC(C)(C)C(=O)O)c2csc(N)n2)C(=O)N1S(=O)(=O)O , same question.
0.858

Queued: Cn1nnc2c(C(N)=O)ncn2c1=O [Temozolomide]
0.415

Entry to check: CN(C)CCCSC(=N)N.Cl.Cl [Dimaprit dihydrochloride]
1.724

Another compound: NCCCCCC(=O)O
1.053

Field entry: CC(Cc1ccccc1)NCCC(c1ccccc1)c1ccccc1 (centres unmarked) [Prenylamine lactate]
0.388

Same thing, different compound: COc1ccc(C2CNC(=O)C2)cc1OC1CCCC1 (centres unmarked)
0.265

Moving on to the next compound: Cc1ccc(C(=O)c2ccc(CC(=O)O)n2C)cc1 [Tolmetin sodium salt dihydrate]
2.458

O=C1c2ccccc2S(=O)(=O)N1CCCCN1CCN(c2ncccn2)CC1 ?
0.854

Similarly, CC(C[N+](C)(C)C)OC(N)=O (centres unmarked) [Bethanechol chloride] ?
0.661

Moving on to the next compound: CC(C)(CO)[C@@H](O)C(=O)NCCCO
0.428

Then Cc1nnc(NS(=O)(=O)c2ccc(N)cc2)s1 ?
0.555

Try the compound NNC(=O)c1ccncc1
1.337
